molecular target: GOPC, Q9HD26; assay: holdup assay; parameters: key: below the threshold = too weak to quantify, mostly under pKd 3.1 to 4; conditions: plain residues with an end cap or a label only (N-terminal biotin on a linker: ado-ado)
measured-metric: pKd

[
  {
    "binder": "KSRPENGTVC [TMEM178B, H3BS89]",
    "recorded-measurement": "below the threshold"
  },
  {
    "binder": "STYCDYTIEI [FAM71C, Q8NEG0]",
    "recorded-measurement": "below the threshold"
  },
  {
    "binder": "KEKASTETEC [TRPM1, Q7Z4N2]",
    "recorded-measurement": "below the threshold"
  },
  {
    "binder": "PGKKPEDSRV [SLCO2B1, O94956]",
    "recorded-measurement": "below the threshold"
  }
]
